The values you see were collected from ChEMBL document CHEMBL3860066.

- System Name: Excitatory amino acid transporter 3 (Homo sapiens, UniProt P43005)
- Sequence (P43005 whole entry): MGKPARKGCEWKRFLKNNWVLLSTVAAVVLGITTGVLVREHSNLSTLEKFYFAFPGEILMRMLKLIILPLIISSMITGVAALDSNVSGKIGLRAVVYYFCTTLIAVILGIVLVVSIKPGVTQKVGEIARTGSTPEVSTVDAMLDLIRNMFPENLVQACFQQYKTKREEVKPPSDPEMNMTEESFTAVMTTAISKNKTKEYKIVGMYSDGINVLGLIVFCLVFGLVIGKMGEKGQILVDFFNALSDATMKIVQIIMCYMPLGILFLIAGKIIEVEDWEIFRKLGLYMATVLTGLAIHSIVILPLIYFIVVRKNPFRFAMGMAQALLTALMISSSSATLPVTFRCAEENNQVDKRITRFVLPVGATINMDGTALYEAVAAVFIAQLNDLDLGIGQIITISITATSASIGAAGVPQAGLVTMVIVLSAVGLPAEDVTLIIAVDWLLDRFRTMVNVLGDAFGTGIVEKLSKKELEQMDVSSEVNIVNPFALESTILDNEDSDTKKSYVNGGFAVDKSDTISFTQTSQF
- Protocol Notes: Inhibition of [3H]-D-Asp uptake at human EAAT3 expressed in HEK293 cells measured after 3 mins by TopCount method
- Assay type: cell-based
- Condition Notes: read-out: IC50
Readout Name: IC50 (µM)

Molecule: N[C@H](C(=O)O)C(NS(=O)(=O)c1ccccc1)C(=O)O (mixture of isomers)
IC50 / µM: 6.2
//
Molecule: N[C@H](C(=O)O)[C@@H](NS(=O)(=O)c1ccccc1)C(=O)O
IC50 / µM: 300
//
Molecule: Cc1cc(C)cc(S(=O)(=O)NC(C(=O)O)[C@H](N)C(=O)O)c1 (mixture of isomers)
IC50 / µM: 100
//
Molecule: N[C@H](C(=O)O)C(NS(=O)(=O)c1ccc(Cl)cc1)C(=O)O (mixture of isomers)
IC50 / µM: 1
//
Molecule: N[C@H](C(=O)O)C(NS(=O)(=O)c1ccc(F)cc1)C(=O)O (mixture of isomers)
IC50 / µM: 2

a. N[C@H](C(=O)O)[C@H](Cc1ccccc1)C(=O)O
b. N[C@H](C(=O)O)C(NS(=O)(=O)c1ccc(-c2ccccc2)cc1)C(=O)O (mixture of isomers)
Enquiry: Which numeric IC50 is bigger, that of a or that of b ? API: response body contains the label of the selected item.
Return: b

I. N[C@H](C(=O)O)C(NS(=O)(=O)c1ccc([N+](=O)[O-])cc1)C(=O)O (mixture of isomers)
II. CS(=O)(=O)c1ccc(S(=O)(=O)NC(C(=O)O)[C@H](N)C(=O)O)cc1 (mixture of isomers)
Enquiry: Could you tell me which of I and II has the lower IC50 reading? API: response body contains the label of the selected item.
Return: I
